Test system: Septoria nodorum
experiment.summary: Test H: wheat glum blotch, preventive spray on wheat seedlings
experimental.context: 40 ppm (marked *); 100 = 100% disease control, 0 = no control
Marks after values point to notes of the source that are not given here.
Some compounds, each annotated with its measured Test H disease control rating.
quantity.measured: Test H disease control rating

| compound | data.value |
| --- | --- |
| Cc1ccn(-c2nc(Cl)c(-c3c(F)cccc3F)n(-c3ccc(F)cc3F)c2=O)n1 | 89* % |
| NC(=O)c1nc(Cl)c(-c2c(F)cc(F)cc2F)n(-c2ccccc2)c1=O | 96* % |
| Cc1ccc(-n2c(-c3c(F)cccc3F)c(Cl)nc(-n3ccc(C)n3)c2=O)cc1 | 94* % |
| O=c1c(-n2cncn2)nc(Cl)c(-c2c(F)cccc2F)n1Cc1cccc(Cl)c1 | 78* % |
| O=c1c(-n2cccn2)nc(Cl)c(-c2c(F)cccc2F)n1C1CCC1 | 100* % |
| O=c1c(-n2cccn2)nc(Cl)c(-c2c(F)cccc2F)n1-c1ccc(F)cc1F | 100* % |
| Cc1ccn(-c2nc(Cl)c(-c3c(F)cccc3F)n(-c3ccc(F)cc3)c2=O)n1 | 100* % |
| COc1ccccc1-n1c(-c2c(F)cccc2F)c(Cl)nc(-n2cccn2)c1=O | 73* % |
| Cc1ccn(-c2nc(Cl)c(-c3c(F)cc(F)cc3F)n(-c3cccc(F)c3)c2=O)n1 | 100* % |
| Cc1cc(C)c(-c2c(Cl)nc(-n3cccn3)c(=O)n2CC(C)C)c(C)c1 | 0* % |
| O=c1c(-n2cccn2)nc(Cl)c(-c2c(F)cccc2F)n1-c1ccccc1C(F)(F)F | 90* % |
| Cc1ccn(-c2nc(Cl)c(-c3c(F)ccc(F)c3F)n(-c3ccccc3)c2=O)n1 | 100* % |
| Cc1ccn(-c2nc(Cl)c(-c3c(F)cc(F)cc3F)n(-c3ccc(Cl)c(Cl)c3)c2=O)n1 | 100* % |
| Cc1ccn(-c2nc(Cl)c(-c3c(F)cccc3F)n(Cc3ccc(F)cc3)c2=O)n1 [compound 331] | 100* % |
| CC[C@H](C)Cn1c(-c2ccc(F)cc2Cl)c(Br)nc(-n2ccc(C)n2)c1=O | 99* % |
| Cc1cc(C)c(-c2c(Cl)nc(-n3ccc(C)n3)c(=O)n2CC(C)C)c(C)c1 | 0* % |
| O=c1c(-n2cccn2)nc(Cl)c(-c2c(F)cccc2F)n1Cc1ccccc1F [compound 330] | 99* % |

Recorded values, source patent US20080194585A1.
